All figures here come from the NIST ThermoML archive (doi:10.1016/j.jct.2011.11.005).

ASSAY_INFO: activity coefficient (dimensionless); of the first substance listed, at infinite dilution; xn = mol fraction of the nth substance listed
PARTICULARS: 333 K; 101.3 kPa; Liquid; open tubular wall-coated column chromatography; x1 = 0
PROPERTY_LABEL: activity coefficient
Response field accepts a number only; no unit should be typed.

// below: answered molecules
C1CCCCC1 [cyclohexane] + CC(=O)[O-].CCn1cc[n+](C)c1 :: 31.5
CCOC(C)=O [ethyl acetate] + CC(=O)[O-].CCn1cc[n+](C)c1 :: 4.77
Cc1ccccc1 [toluene] + CC(=O)[O-].CCn1cc[n+](C)c1 :: 5.41

Now look at this entry.
## Input Give the reported activity coefficient for this molecule. CCCCCC [hexane] + CC(=O)[O-].CCn1cc[n+](C)c1
## Output 80
